Values were extracted from patent US4673747A.

# Tested on: Gastric acid secretion induced by histamine
# protocol: Inhibitory effect of intraduodenally administered compounds on gastric acid secretion induced by histamine in rat
# Assay type: in vivo, rat (male Wistar)
# setup conditions: intraduodenal, from ED50; rat
Strictly below 20 in Efficacy Ratio relative to Cimetidine (Cimetidine = 1): Satisfied. Otherwise: Not satisfied.

Solved cases (3 shown):
{"columns": ["compound", "label"],
 "data": [
  ["O=c1c(NC/C=C\\COc2cccc(CN3CCCCC3)c2)c(NCc2ccncc2)c1=O [Ex. 38]", "Not satisfied"],
  ["Nc1n[nH]c(=O)nc1NC/C=C/COc1cccc(CN2CCCCC2)c1 [Ex. 11]", "Satisfied"],
  ["CC(C)Nc1n[s+]([O-])nc1NC/C=C\\COc1cccc(CN2CCCCC2)c1 (stereo not shown) [Ex. 19]", "Satisfied"]
]}

Is 20 strictly greater than the compound's reported Efficacy Ratio relative to Cimetidine (Cimetidine = 1)? compound: CC1CCCCN1Cc1cccc(OC/C=C\CNc2c(N)c(=O)c2=O)c1 (stereo not shown) [Ex. 33] Satisfied

Is 20 strictly greater than the compound's reported Efficacy Ratio relative to Cimetidine (Cimetidine = 1)? compound: Nc1cc(NC/C=C\COc2cccc(CN3CCCCC3)c2)nc(=O)[nH]1 [Ex. 13] Satisfied

Is 20 strictly greater than the compound's reported Efficacy Ratio relative to Cimetidine (Cimetidine = 1)? compound: CNc1n[nH]c(=O)nc1NC/C=C\COc1cccc(CN2CCCCC2)c1 [Ex. 10] Satisfied

====

# System: Gastric acid secretion induced by histamine
# protocol: Inhibitory effect of intraduodenally administered compounds on gastric acid secretion induced by histamine in rat
# Format: in vivo, rat (male Wistar)
# setup conditions: intraduodenal, from ED50; rat
Efficacy Ratio relative to Cimetidine (Cimetidine = 1) values, listed per item

Please review the following examples before continuing.
{"columns": ["molecule", "reported"],
 "data": [
  ["Nc1c(NC/C=C\\COc2cccc(CN3CCCC3)c2)c(=O)c1=O [Ex. 8]", 10.3],
  ["CNc1c(NC/C=C\\COc2cccc(CN3CCCCC3)c2)c(=O)c1=O [Ex. 3]", 200.0]
]}

Proceed to the following item.
Which value of Efficacy Ratio relative to Cimetidine (Cimetidine = 1) has been reported for Nc1c(NC/C=C\COc2cccc(CN3CCCCC3)c2)c(=O)c1=O [Ex. 2] in the records? 156.5

====

# protocol: Acute toxicity test on mice dosed orally
# Parameters: species or system mouse (male ddy)
# setup conditions: mouse, in vivo, po, P.O., 14 days observation, read-out: Median lethal dose (LD50)
measured parameter: LD50 at 336 h

Please review the following examples before continuing.
{"columns": ["molecule", "measured parameter", "reported"],
 "data": [
  ["CN/C(=N/CCSCc1nc[nH]c1C)NC#N [Cimetidine, reference compound]", "LD50 at 336 h", "3300 mg/kg"],
  ["CNc1n[s+]([O-])nc1NC/C=C\\COc1cccc(CN2CCCCC2)c1 (stereo not shown)", "LD50 at 336 h", "> 1500 mg/kg"],
  ["Nc1n[nH]c(=O)nc1NC/C=C\\COc1cccc(CN2CCCCC2)c1", "LD50 at 336 h", "1200 mg/kg"]
]}

Which value of LD50 at 336 h has been reported for `CNc1n[nH]c(=O)nc1NC/C=C\COc1cccc(CN2CCCCC2)c1` in the records? > 1500 mg/kg

Which value of LD50 at 336 h has been reported for `Nc1c(NC/C=C\COc2cccc(CN3CCCCC3)c2)c(=O)c1=O` in the records? > 1500 mg/kg

Which value of LD50 at 336 h has been reported for `Nc1cc(NC/C=C\COc2cccc(CN3CCCCC3)c2)nc(=O)[nH]1` in the records? > 1500 mg/kg

Which value of LD50 at 336 h has been reported for `CNc1c(NC/C=C\COc2cccc(CN3CCCCC3)c2)c(=O)c1=O` in the records? > 1500 mg/kg

====

# target system: Histamine H2-Receptor (Cavia porcellus)
# Construct: from tissue; host or cells: isolated atrium of male Hartley guinea pig
# Parameters: species or system guinea pig (male Hartley)
# setup conditions: isolated guinea pig atrium; negative logarithm of molar concentration; heart beats, histamine dose-response; read-out: Antagonistic Action against Histamine H2-Receptor (pA2) Determined by Using Atrium isolated from Guinea Pig (converted)
# Procedure: A male Hartley guinea pig having a body weight of about 400 g was killed by cervical dislocation, and the artrium thereof was isolated and was suspended in an organ bath containing 50 ml of a modified Ringer solution and subjected to a tension of 1 g. The number of heart beats under such condition was recorded using a polygraph. Initially, from 1×10^-7 mol to 3×10^-4 mol of histamine was allowed to act accumulatively to depict the curve of the dosage-reaction relationship. […]
Kb values, listed per item
Numeric only. Scale: nM

{"columns": ["compound", "unit", "reported"],
 "data": [
  ["CC(C)Nc1n[s+]([O-])nc1NC/C=C\\COc1cccc(CN2CCCCC2)c1 (stereo not shown)", "nM", 2400],
  ["Nc1n[nH]c(=O)nc1NC/C=C\\COc1cccc(CN2CCCCC2)c1", "nM", 186],
  ["Nc1n[s+]([O-])nc1NC/C=C\\COc1cccc(CN2CCCCC2)c1 (stereo not shown)", "nM", 437]
]}

Which value of Kb has been reported for CNc1n[s+]([O-])nc1NC/C=C\COc1cccc(CN(C)C)c1 (stereo not shown) in the records? 316

Which value of Kb has been reported for `CNc1nnc(NC/C=C\COc2cccc(CN3CCCC3)c2)s1` in the records? 550

====

# Tested on: Gastric acid secretion induced by histamine
# protocol: Inhibitory effect of intraduodenally administered compounds on gastric acid secretion induced by histamine in rat
# Assay type: in vivo, rat (male Wistar)
# setup conditions: intraduodenal, from ED50; rat
measured parameter: Efficacy Ratio relative to Cimetidine (Cimetidine = 1)
Output: the number by itself.

Which value of Efficacy Ratio relative to Cimetidine (Cimetidine = 1) has been reported for O=c1c(NC/C=C\COc2cccc(CN3CCCCC3)c2)c(NCc2cccnc2)c1=O [Ex. 37] in the records? 97.3

Which value of Efficacy Ratio relative to Cimetidine (Cimetidine = 1) has been reported for CC1CCN(Cc2cccc(OC/C=C\CNc3c(N)c(=O)c3=O)c2)CC1 [Ex. 35] in the records? 18.9

Which value of Efficacy Ratio relative to Cimetidine (Cimetidine = 1) has been reported for CN(C)Cc1cccc(OC/C=C\CNc2n[s+]([O-])nc2N)c1 (stereo not shown) [Ex. 21] in the records? 3.6

Which value of Efficacy Ratio relative to Cimetidine (Cimetidine = 1) has been reported for CNc1n[s+]([O-])nc1NC/C=C\COc1cccc(CN(C)C)c1 (stereo not shown) [Ex. 22] in the records? 11.6

Which value of Efficacy Ratio relative to Cimetidine (Cimetidine = 1) has been reported for CC1CCCN(Cc2cccc(OC/C=C\CNc3c(N)c(=O)c3=O)c2)C1 (stereo not shown) [Ex. 34] in the records? 42.1

Which value of Efficacy Ratio relative to Cimetidine (Cimetidine = 1) has been reported for CNC1=NS(=O)(=O)N=C1NC/C=C\COc1cccc(CN2CCCCC2)c1 [Reference Ex. 2, reference compound] in the records? 16.4

Which value of Efficacy Ratio relative to Cimetidine (Cimetidine = 1) has been reported for NC1=NS(=O)(=O)N=C1NC/C=C\COc1cccc(CN2CCCCC2)c1 [Reference Ex. 1, reference compound] in the records? 36.0

Which value of Efficacy Ratio relative to Cimetidine (Cimetidine = 1) has been reported for CCCNc1n[s+]([O-])nc1NC/C=C\COc1cccc(CN2CCCCC2)c1 (stereo not shown) [Ex. 20] in the records? 9.0

Which value of Efficacy Ratio relative to Cimetidine (Cimetidine = 1) has been reported for Nc1n[s+]([O-])nc1NC/C=C\COc1cccc(CN2CCCC2)c1 (stereo not shown) [Ex. 17] in the records? 8.8

Which value of Efficacy Ratio relative to Cimetidine (Cimetidine = 1) has been reported for Nc1n[s+]([O-])nc1NC/C=C\COc1cccc(CN2CCCCC2)c1 (stereo not shown) [Ex. 15] in the records? 109.1

Which value of Efficacy Ratio relative to Cimetidine (Cimetidine = 1) has been reported for Nc1nnc(NC/C=C\COc2cccc(CN3CCCCC3)c2)s1 [Ex. 27] in the records? 16.0

Which value of Efficacy Ratio relative to Cimetidine (Cimetidine = 1) has been reported for CNc1n[s+]([O-])nc1NC/C=C\COc1cccc(CN2CCCCC2)c1 (stereo not shown) [Ex. 16] in the records? 180.0

Which value of Efficacy Ratio relative to Cimetidine (Cimetidine = 1) has been reported for CNc1nnc(NC/C=C\COc2cccc(CN3CCCCC3)c2)s1 [Ex. 28] in the records? 11.6

====

# target system: Histamine H2-Receptor (Cavia porcellus, UniProt P47747)
# Construct: from tissue; host or cells: isolated atrium of male Hartley guinea pig
# Sequence (P47747 whole entry): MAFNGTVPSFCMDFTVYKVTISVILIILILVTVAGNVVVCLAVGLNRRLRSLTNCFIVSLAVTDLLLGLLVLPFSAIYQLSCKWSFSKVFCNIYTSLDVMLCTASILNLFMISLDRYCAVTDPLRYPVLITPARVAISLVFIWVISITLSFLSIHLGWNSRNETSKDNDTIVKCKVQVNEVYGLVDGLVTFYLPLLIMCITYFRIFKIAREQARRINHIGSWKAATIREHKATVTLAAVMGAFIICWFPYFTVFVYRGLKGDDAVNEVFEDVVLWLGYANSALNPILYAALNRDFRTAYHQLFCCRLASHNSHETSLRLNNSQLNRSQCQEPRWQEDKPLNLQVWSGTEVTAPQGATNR
# Set-up: species or system guinea pig (male Hartley)
# setup conditions: isolated guinea pig atrium; negative logarithm of molar concentration; heart beats, histamine dose-response; read-out: Antagonistic Action against Histamine H2-Receptor (pA2) Determined by Using Atrium isolated from Guinea Pig (converted)
Kb values, listed per item
Numeric only. Scale: nM

{"columns": ["compound", "unit", "reported"],
 "data": [
  ["Nc1cc(NC/C=C\\COc2cccc(CN3CCCCC3)c2)nc(=O)[nH]1", "nM", 83.2],
  ["Nc1c(NC/C=C/COc2cccc(CN3CCCCC3)c2)c(=O)c1=O", "nM", 178],
  ["CNc1c(NC/C=C/COc2cccc(CN3CCCCC3)c2)c(=O)c1=O", "nM", 513],
  ["CC1CCCN(Cc2cccc(OC/C=C\\CNc3c(N)c(=O)c3=O)c2)C1 (centres unmarked)", "nM", 70.8]
]}

Proceed to the following item.
Which value of Kb has been reported for `O=c1c(NC/C=C\COc2cccc(CN3CCCCC3)c2)c(NCc2cccnc2)c1=O` in the records? 646
